# protocol_details: qHTS assay to identify small molecule antagonists of the constitutive androstane receptor (CAR) signaling pathway - cell viability counter screen (AID 1224837); also: nearly all actives have a fitted effect of over 45% in size
# conditions: HepG2-CYP2B6-hCAR viability, CellTiter-Fluor, 23 h, co-treated with 50 nM CITCO; series mostly up to 92.4 µM
Inconclusive results are not listed. Active and inactive are the calls of the source. Calls follow the shape of the dose curve; as a rule, active = well fitted cell-killing curve with a large enough effect in the repeat runs; inconclusive = weak or mixed curves, or effect the other way; inactive = flat fitted curve, though single readings scatter.
Possible outcomes: Yes = active, No = inactive

CN(C)C(=O)Nc1ccc(Oc2ccc(Cl)cc2)cc1
No
CN1Cc2cc(C(=O)N3CCC(C4CCNCC4)CC3)ccc2N[C@@H](CC(=O)O)C1=O
No
CC(COc1ccc(C(C)(C)C)cc1)OS(=O)OCCCl (configuration not stated)
Yes
N#C/C(=C1\SCC(c2ccccc2Cl)S1)n1ccnc1 (configuration not stated)
No
C[N+]1(C)CCC(=C(c2ccccc2)c2ccccc2)CC1
No
CCCCCCCCCCCCCCC[C@H](O)[C@@H](N)CO
No
CNC(=O)N(c1ccccc1)c1ccccc1
No
CC1CC(=O)NN=C1c1ccc(NCC(C)(C)NCC(O)COc2cc(Cl)ccc2C#N)cc1 (configuration not stated)
No
CC(C)(C)C(=O)C(Oc1ccc(Cl)cc1)n1ccnc1 (configuration not stated)
No
C=CC(=O)NCOCC(C)C
No
CC1=CC(=O)CC(C)(C)C1(O)/C=C/C(C)=C\C(=O)O (configuration not stated)
No
CC(C)C(OC(=O)c1ccccc1)C(C)(C)COC(=O)c1ccccc1 (configuration not stated)
No

Value source: PubChem BioAssay (Tox21)
